molecular target: CBL-B protein (Homo sapiens, UniProt Q13191); assay: CBL-B binding experiment (Streptavidin-Tb cryptate / Ligand L1 displacement); settings: 8 nM CBL-B protein, 25° C., 60 minutes; Ki=Relative IC50/2
Sequence (Q13191 whole entry): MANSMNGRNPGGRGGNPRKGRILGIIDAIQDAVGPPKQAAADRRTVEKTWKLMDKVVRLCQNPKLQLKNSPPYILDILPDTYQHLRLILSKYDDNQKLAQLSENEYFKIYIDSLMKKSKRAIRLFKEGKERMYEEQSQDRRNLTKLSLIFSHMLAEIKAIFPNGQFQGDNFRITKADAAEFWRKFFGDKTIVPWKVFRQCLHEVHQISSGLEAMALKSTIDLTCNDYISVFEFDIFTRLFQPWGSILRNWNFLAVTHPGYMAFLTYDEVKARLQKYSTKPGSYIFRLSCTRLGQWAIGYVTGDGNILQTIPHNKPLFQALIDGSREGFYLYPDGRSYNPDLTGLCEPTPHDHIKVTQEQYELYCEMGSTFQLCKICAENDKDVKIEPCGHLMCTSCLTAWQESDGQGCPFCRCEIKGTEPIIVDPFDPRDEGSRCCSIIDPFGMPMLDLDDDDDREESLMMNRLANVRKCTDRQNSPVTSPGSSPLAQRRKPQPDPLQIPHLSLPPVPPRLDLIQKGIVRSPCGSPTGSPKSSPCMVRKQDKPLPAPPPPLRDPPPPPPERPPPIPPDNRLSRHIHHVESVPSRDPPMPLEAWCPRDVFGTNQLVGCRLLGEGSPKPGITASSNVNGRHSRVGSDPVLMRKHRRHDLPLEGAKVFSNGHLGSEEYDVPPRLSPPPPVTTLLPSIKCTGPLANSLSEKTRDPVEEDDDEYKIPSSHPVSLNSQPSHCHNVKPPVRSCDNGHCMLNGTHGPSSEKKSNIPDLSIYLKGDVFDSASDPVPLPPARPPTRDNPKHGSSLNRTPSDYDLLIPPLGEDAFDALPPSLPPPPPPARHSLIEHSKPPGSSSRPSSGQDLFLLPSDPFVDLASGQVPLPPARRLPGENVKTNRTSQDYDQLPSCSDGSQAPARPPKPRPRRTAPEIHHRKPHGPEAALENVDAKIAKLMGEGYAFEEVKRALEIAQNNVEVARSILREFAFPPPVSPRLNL
Some compounds, each annotated with its measured Ki.
measurement.kind: Ki

1) C[C@H]1CCCN(Cc2cc3c(C(F)(F)F)cn(-c4cccc(C5([C@@H](F)c6nncn6C)CC(F)(F)C5)c4)c(=O)c3[nH]2)C1	< 50 nM
2) Cn1cnnc1C1(c2cccc(-n3cc(C(F)(F)F)c4cc(CNCCC5CC5)[nH]c4c3=O)c2)CCC1	< 50 nM
3) Cn1cnnc1[C@]1(c2cccc(-n3cc(C(F)(F)F)c4cc(CNCCC5CC5)[nH]c4c3=O)c2)C[C@H](C)C1	< 50 nM
